Each entry below carries its recorded ME_72h.
System: T. cruzi intracellular amastigotes in H9c2 cells
test-protocol: Rate-of-Kill (RoK) high-content imaging assay, amastigotes per cell (AM/CELL) and curve descriptors
Type: cell-based, Trypanosoma cruzi
Design: key: % reduction in parasite burden (cidal response)
measurement-context: 72h, figure 5

| compound | measurement-target | ME_72h |
| --- | --- | --- |
| NC(=O)c1ccccc1Nc1nc(NC2CCCCC2)nc2[nH]ccc12 [TCMDC-143314] | T. cruzi intracellular amastigotes in H9c2 cells | -1441.39 |
| COc1cc(NC(=O)Nc2cccc(CNC(=O)OC3CCCCC3)c2)ccc1-c1cnco1 [TCMDC-143376] | T. cruzi intracellular amastigotes in H9c2 cells | -0.198 |
| CC(=O)Nc1ccc(-c2noc(CC3CCCN(Cc4cccc(F)c4C)C3)n2)cc1 (centres unmarked) [TCMDC-143362] | T. cruzi intracellular amastigotes in H9c2 cells | 68.1396 |
| O=S(=O)(c1cccc(CSc2nnc(-c3ccc4c(c3)OCO4)o2)c1)N1CCOCC1 [TCMDC-143197] | T. cruzi intracellular amastigotes in H9c2 cells | 33.635 |
| CC(CNS(=O)(=O)c1ccc(OC(F)F)cc1)c1ccc(NC(=O)c2ccncc2)cc1 (centres unmarked) [TCMDC-143535] | T. cruzi intracellular amastigotes in H9c2 cells | 45.5869 |
| O=C(NCCc1ccccn1)C(c1cn[nH]c1)N1CCN(c2ccc(Cl)c(Cl)c2)CC1 (centres unmarked) [TCMDC-143411] | T. cruzi intracellular amastigotes in H9c2 cells | 99.2836 |
| COc1ccc2ncc(=O)n(CCN3CCOC(CNCc4ccc(C(F)(F)F)cc4F)C3)c2n1 (centres unmarked) [TCMDC-143384] | T. cruzi intracellular amastigotes in H9c2 cells | -18.8553 |
| Cc1nnnn1-c1cccc(C(=O)N2CCC[C@@]3(C)c4ncncc4CCC23)c1 (some centres unmarked) [TCMDC-143148] | T. cruzi intracellular amastigotes in H9c2 cells | 73.626 |

* * *

System: T. cruzi intracellular amastigotes in H9c2 cells
test-protocol: Rate-of-Kill (RoK) high-content imaging assay, amastigotes per cell (AM/CELL) and curve descriptors
Format: cell-based, Trypanosoma cruzi
Parameters: key: % reduction in parasite burden (cidal response)
measurement-context: 72h, figure 5
Procedure: For this high-content intracellular imaging assay, H9c2 cells were seeded in 225 cm^2 T- FLASK in DMEM with 10% FBS for 4 h to allow attachment. […] Trypomastigotes were then collected and counted in a CASY Cell Counter using the 60 μm capillary. […] Cells were counted in a CASY Cell Counter, using the 150 μm capillary, and their density set at 5 x 10^4 cells/mL in supplemented DMEM. […] Then plates were read in a PerkinElmer Opera Phenix using a 20x objective, 3 fields per well. […]
Each entry below carries its recorded ME_72h.

| compound | ME_72h |
| --- | --- |
| Cc1[nH]nc2c1C(c1ccc(OCc3ccccc3F)cc1)SCC(=O)N2 (stereo not drawn) | -52.7101 |
| CCOc1ccc(NC(=O)C=Cc2ccc(CC)o2)cc1 | -988.393 |
| COc1ccc(S(=O)(=O)Nc2ccccc2OC)cc1NC(=O)CCCc1c[nH]c2ccccc12 | 75.3535 |
| O=C(NC1C(=O)N(c2ccccc2)C1c1cccnc1)c1ccc(Cl)s1 (stereo not drawn) | -10.0757 |
| COc1ccc(NS(=O)(=O)c2cccc(NC(=O)c3cc(F)cc(F)c3)c2)cc1 | 85.1326 |
| CCC(=O)Nc1ccc(-c2nc3ccc(Cl)cc3[nH]2)cc1 | 38.7036 |
| N#Cc1ccc(S(=O)(=O)N2CCC3(CCN(c4ccccc4)C3=O)CC2)cc1 | 62.6058 |
| CN(C)Cc1ccc(N2CCC(NS(=O)(=O)c3ccc(Cl)cc3)CC2)cc1 | -765.031 |
| Cc1nn(C)c(Cl)c1CN(Cc1cccnc1)Cc1ccsc1 | -13.578 |
| CC[C@@H]([C@H](C)O)n1ncn(-c2ccc(N3CCN(c4ccc(OC[C@@H]5CO[C@@](Cn6cncn6)(c6ccc(F)cc6F)C5)cc4)CC3)cc2)c1=O [Posaconazole, reference compound] | 50.6685 |
| COc1ccc(NS(=O)(=O)c2cc(NC(=O)c3ccc([N+](=O)[O-])s3)ccc2OC)cc1 | 93.6846 |
| CC(C)N(C(=O)CN1C(=O)C(N)C(=O)N(c2ccccc2)c2ccccc21)c1ccccc1 (stereo not drawn) | 63.3605 |

* * *

Test system: T. cruzi intracellular amastigotes in H9c2 cells
test-protocol: Rate-of-Kill (RoK) high-content imaging assay, amastigotes per cell (AM/CELL) and curve descriptors
Assay type: cell-based, Trypanosoma cruzi
measurement-context: at MCC50
Each entry below carries its recorded t50%_MCC50.
readout-label: t50%_MCC50 (h)

| compound | measured-result |
| --- | --- |
| Cc1nc2nc(C)c(Cc3ccc(C(C)C)cc3)c(=O)n2[nH]1 | 72.0 |
| COc1ccc(S(=O)(=O)NC(C)C)cc1Nc1ncc(-c2cccc(F)c2)cn1 | 72.0 |
| COc1ccc(NS(=O)(=O)c2cc(NC(=O)c3ccc([N+](=O)[O-])s3)ccc2OC)cc1 | 48.0 |
| CC(C)Oc1cccc(N2CCC(C(=O)N3CCCN(C(C)C)CC3)CC2)c1.Cl | 72.0 |
| CN(C)CCOc1ccc(N2CCN(S(=O)(=O)c3ccc(Cl)cc3)CC2)cc1 | 72.0 |
| CN(C)Cc1ccc(N2CCC(NS(=O)(=O)c3ccc(Cl)cc3)CC2)cc1 | 72.0 |
| N#Cc1cc(N2CCCC2=O)ccc1Sc1ccccc1CO | 72.0 |
| O=c1[nH]cnc2c([C@@H]3O[C@H](CO)[C@@H](O)[C@H]3O)n[nH]c12 | 60.0 |
| O=C(NCC1CCCCC1)c1cc(=O)c2ccccc2o1 | 72.0 |
| CC(=O)Nc1nc(-c2cc(C)ccc2C)c(C)s1 | 72.0 |
| Cc1nccn1C1CCCN(C(=O)c2cc3c(F)cccc3s2)C1 (stereo not shown) | 72.0 |
| CC(C)c1cc(C(=O)N2CCCC(c3cc4ncccc4[nH]3)C2)on1 (stereo not shown) | 60.0 |
| Cn1cncc1CN1CCC2(CC1)COC(Cc1ccccc1)C2 (stereo not shown) | 72.0 |
| O=C(CSc1ccc(F)cc1)N[C@@H](Cc1cnc[nH]1)C(=O)NCCc1ccccc1.O=C(O)C(F)(F)F | 72.0 |
| CS(=O)(=O)c1cccc(CNC(=O)c2cncc(N3CCN(c4ccc(F)cc4)CC3)c2)c1.O=C(O)C(F)(F)F.O=C(O)C(F)(F)F.O=C(O)C(F)(F)F | 72.0 |
| COc1ccc(C(C)N(C)c2ncc3c(N)nc(N)nc3n2)cc1F (stereo not shown) | 56.0 |

* * *

Test system: T. cruzi intracellular amastigotes in H9c2 cells
test-protocol: Rate-of-Kill (RoK) high-content imaging assay, amastigotes per cell (AM/CELL) and curve descriptors
Assay type: cell-based, Trypanosoma cruzi
measurement-context: figure 5; in µM

| compound | measurement-target | MCC50 |
| --- | --- | --- |
| CC1CN(S(=O)(=O)c2ccc(NC(=O)c3cc(C4CC4)nc4c3cnn4C(C)C)cc2)CC(C)O1 (stereo not drawn) | T. cruzi intracellular amastigotes in H9c2 cells | 1.852 |
| COc1ccc(-c2nc3ncccc3o2)cc1NC(=O)c1cccs1 | T. cruzi intracellular amastigotes in H9c2 cells | 16.6667 |
| CS(=O)(=O)c1cccc(-c2cnc(N)c3c(-c4ccc(CO)cc4)csc23)c1.O=C(O)C(F)(F)F | T. cruzi intracellular amastigotes in H9c2 cells | 25.9259 |
| Fc1ccc(OC2CC(NCc3cccc4cn[nH]c34)C2)cc1C(F)(F)F (stereo not drawn) | T. cruzi intracellular amastigotes in H9c2 cells | 5.556 |
| COc1ccc(NS(=O)(=O)c2cc(-c3cc(C)[nH]n3)ccc2C)cc1OC | T. cruzi intracellular amastigotes in H9c2 cells | 38.8889 |
| O=C(NCCc1cccnc1)c1ccc(-c2ccccc2F)o1 | T. cruzi intracellular amastigotes in H9c2 cells | 27.7778 |
| Cn1cncc1CN1CCC2(CC1)COC(Cc1ccccc1)C2 (stereo not drawn) | T. cruzi intracellular amastigotes in H9c2 cells | 5.556 |
| COc1ccccc1-c1c(C)[nH]c2nc(N)nc(C)c12 | T. cruzi intracellular amastigotes in H9c2 cells | 1.543 |
| O=C(Cn1ccnc1[N+](=O)[O-])NCc1ccccc1 [Benznidazole, benznidazole, reference compound] | T. cruzi intracellular amastigotes in H9c2 cells | 33.802 |
| N#Cc1cc(N2CCCC2=O)ccc1Sc1ccccc1CO | T. cruzi intracellular amastigotes in H9c2 cells | 1.852 |
| CN(C)CCOc1ccc(N2CCN(S(=O)(=O)c3ccc(Cl)cc3)CC2)cc1 | T. cruzi intracellular amastigotes in H9c2 cells | 1.852 |
| Cc1sc(C)c(C(F)(F)F)c1CNCCCNc1cc(=O)c2ccccc2[nH]1.Cl | T. cruzi intracellular amastigotes in H9c2 cells | 5.556 |
| O=c1[nH]cnc2c([C@@H]3O[C@H](CO)[C@@H](O)[C@H]3O)n[nH]c12 | T. cruzi intracellular amastigotes in H9c2 cells | 3.7037 |
| CC1CS(=O)(=O)CCN1/N=C/c1ccc([N+](=O)[O-])o1 (stereo not drawn) [Nifurtimox, nifurtimox, reference compound] | T. cruzi intracellular amastigotes in H9c2 cells | 7.545 |
| CC(C)Oc1cccc(N2CCC(C(=O)N3CCCN(C(C)C)CC3)CC2)c1.Cl | T. cruzi intracellular amastigotes in H9c2 cells | 1.852 |
| CCCN(Cc1ccc(OC)c(OC)c1)Cc1cc(=O)c2c(C)cc(C)cc2[nH]1 | T. cruzi intracellular amastigotes in H9c2 cells | 27.7778 |
| CC[C@@H]([C@H](C)O)n1ncn(-c2ccc(N3CCN(c4ccc(OC[C@@H]5CO[C@@](Cn6cncn6)(c6ccc(F)cc6F)C5)cc4)CC3)cc2)c1=O [Posaconazole, reference compound] | T. cruzi intracellular amastigotes in H9c2 cells | 23.7078 |
| Cc1nnnn1-c1cccc(C(=O)N2CCC[C@@]3(C)c4ncncc4CCC23)c1 (stereo partly drawn) | T. cruzi intracellular amastigotes in H9c2 cells | 1.852 |
| CN1CCCN(C(=O)c2ccc(N3CCCC3)cc2Cl)CC1 | T. cruzi intracellular amastigotes in H9c2 cells | 7.037 |
| COc1ccc(S(=O)(=O)Nc2ccccc2OC)cc1NC(=O)CCCc1c[nH]c2ccccc12 | T. cruzi intracellular amastigotes in H9c2 cells | 5.556 |
| O=C(C1CCCCC1)N1CCN(c2nnc(-c3ccccc3)c3ccccc23)CC1 | T. cruzi intracellular amastigotes in H9c2 cells | 5.556 |
| CN(C)Cc1ccc(-c2ccc(S(=O)(=O)NCC3CCCO3)c(F)c2)cc1.O=C(O)C(F)(F)F (stereo not drawn) | T. cruzi intracellular amastigotes in H9c2 cells | 1.852 |
| Cc1cc(N(C)C)nc(Nc2ccccc2C)n1 | T. cruzi intracellular amastigotes in H9c2 cells | 5.556 |
| Cc1cc2cncn2c(C2CCCCN2C(=O)c2cccs2)n1 (stereo not drawn) | T. cruzi intracellular amastigotes in H9c2 cells | 16.6667 |
| Cn1cc(CN2CCN(c3ccc4c(c3)CCN(C(=O)[C@H]3C[C@@H]3c3ccccc3)CC4)CC2)cn1 | T. cruzi intracellular amastigotes in H9c2 cells | 16.6667 |
| COc1ccc(NS(=O)(=O)c2cccc(NC(=O)c3cc(F)cc(F)c3)c2)cc1 | T. cruzi intracellular amastigotes in H9c2 cells | 5.556 |
| COc1cccc(CCNC(=O)C(c2cn[nH]c2)N2CCN(c3ccc(Cl)cc3)CC2)c1 (stereo not drawn) | T. cruzi intracellular amastigotes in H9c2 cells | 5.556 |
| CCCn1c(NC(=O)Cc2ccc(Cl)cc2)nc2ccccc21 | T. cruzi intracellular amastigotes in H9c2 cells | 27.7778 |
| Cc1c(C(=O)NCCCCn2ccnc2)oc2c(C)cccc12 | T. cruzi intracellular amastigotes in H9c2 cells | 1.852 |
| CC(=O)Nc1ccc(-c2noc(CC3CCCN(Cc4cccc(F)c4C)C3)n2)cc1 (stereo not drawn) | T. cruzi intracellular amastigotes in H9c2 cells | 5.556 |
| O=C(NCCc1ccccn1)C(c1cn[nH]c1)N1CCN(c2ccc(Cl)c(Cl)c2)CC1 (stereo not drawn) | T. cruzi intracellular amastigotes in H9c2 cells | 16.6667 |
| O=C(O)C(F)(F)F.O=c1oc2ccccc2n1C1CCN(Cc2ccccc2-c2cccnc2)CC1 | T. cruzi intracellular amastigotes in H9c2 cells | 5.556 |
| COc1ccc(C(=O)Nc2cc(C(F)(F)F)ccc2N2CCOCC2)c(OC)c1 | T. cruzi intracellular amastigotes in H9c2 cells | 1.852 |
